- System: PA28-inactivating protein
- Test: Hydrolysis of synthetic peptides and proteins by PA28-inactivating protein
- Format: biochemical, bovine
- Measurement Context: 0.05 μg enzyme, 50 μM substrate, 50 mM MES pH 5.2, 30° C.; 1.0 unit = 1.0 nM/min product
Peptide text beside a SMILES is read from it.
Known hydrolysis by PA28-inactivating protein of a selection of compounds
Respond with the bare value in UNITS/μg.

Compound: COc1cc(NC(=O)[C@H](Cc2ccccc2)NC(=O)[C@H](CC(C)C)NC(=O)[C@H](Cc2ccccc2)NC(=O)CCC(=O)O)cc2ccccc12 [Suc--Phe--Leu--Phe--MNA]
Experimental Target: PA28-inactivating protein
hydrolysis by PA28-inactivating protein [UNITS/μg]: 0

Compound: COc1cc(NC(=O)[C@H](CCCNC(=N)N)NC(=O)[C@H](CC(C)C)NC(=O)[C@@H](NC(=O)OCc2ccccc2)C(C)C)cc2ccccc12 [Z--Val--Leu--Arg--MNA, Z-Val-Leu-Arg-MNA]
Experimental Target: PA28-inactivating protein
hydrolysis by PA28-inactivating protein [UNITS/μg]: 28

Compound: O=C(CNC(=O)OCc1ccccc1)NCC(=O)N[C@@H](Cc1ccccc1)C(=O)Nc1ccc2ccccc2c1 [Z--Gly--Gly--Phe--βNA] (HELM PEPTIDE1{[O=C(OCc1ccccc1)[*:2]].G.G.F.[c1ccc2cc(N[*:1])ccc2c1]}$$$$V2.0)
Experimental Target: PA28-inactivating protein
hydrolysis by PA28-inactivating protein [UNITS/μg]: 0

Asked: Recall the reported hydrolysis by PA28-inactivating protein of COc1cc(NC(=O)[C@H](CCCNC(=N)N)NC(=O)OCc2ccccc2)cc2ccccc12 [Z--Arg--MNA] when tested on PA28-inactivating protein.
Given back: 0

Asked: With PA28-inactivating protein as the test system, provide measured hydrolysis by PA28-inactivating protein for this compound: COc1cc(NC(=O)[C@H](Cc2ccc(O)cc2)NC(=O)[C@H](CO)NC(=O)OCc2ccccc2)cc2ccccc12 [Z--Ser--Tyr--MNA]
Given back: 0

Asked: Fill: hydrolysis by PA28-inactivating protein (PA28-inactivating protein) for this compound COc1cc(NC(=O)[C@H](CCCNC(=N)N)NC(=O)[C@@H]2CCCN2C(=O)CNC(=O)OCc2ccccc2)cc2ccccc12 [Z--Gly--Pro--Arg--MNA]
Given back: 13

Asked: # lookup: PA28-inactivating protein hydrolysis by PA28-inactivating protein, key = Cc1cc(=O)oc2cc(NC(=O)[C@H](Cc3ccc(O)cc3)NC(=O)CCC(=O)O)ccc12 [Suc--Tyr--AMC]
Given back: 0

Asked: # return hydrolysis by PA28-inactivating protein for COc1cc(NC(=O)[C@H](CCCCN)NC(=O)[C@H](CC(C)C)NC(=O)[C@H](CC(C)C)NC(=O)OCc2ccccc2)cc2ccccc12 [Z--Leu--Leu--Lys--MNA] , test system: PA28-inactivating protein
Given back: 19

Asked: Using PA28-inactivating protein as the test system, report measured hydrolysis by PA28-inactivating protein of COc1cc(NC(=O)[C@H](CCCNC(=N)N)NC(=O)[C@H](CC(C)C)NC(=O)OCc2ccccc2)cc2ccccc12 [Z--Leu--Arg--MNA, Z-Leu-Arg-MNA] .
Given back: 98
